- target_entity: hα4 and β1 integrins (Homo sapiens, UniProt P05556+P13612)
- Sequence (P13612 34-1032): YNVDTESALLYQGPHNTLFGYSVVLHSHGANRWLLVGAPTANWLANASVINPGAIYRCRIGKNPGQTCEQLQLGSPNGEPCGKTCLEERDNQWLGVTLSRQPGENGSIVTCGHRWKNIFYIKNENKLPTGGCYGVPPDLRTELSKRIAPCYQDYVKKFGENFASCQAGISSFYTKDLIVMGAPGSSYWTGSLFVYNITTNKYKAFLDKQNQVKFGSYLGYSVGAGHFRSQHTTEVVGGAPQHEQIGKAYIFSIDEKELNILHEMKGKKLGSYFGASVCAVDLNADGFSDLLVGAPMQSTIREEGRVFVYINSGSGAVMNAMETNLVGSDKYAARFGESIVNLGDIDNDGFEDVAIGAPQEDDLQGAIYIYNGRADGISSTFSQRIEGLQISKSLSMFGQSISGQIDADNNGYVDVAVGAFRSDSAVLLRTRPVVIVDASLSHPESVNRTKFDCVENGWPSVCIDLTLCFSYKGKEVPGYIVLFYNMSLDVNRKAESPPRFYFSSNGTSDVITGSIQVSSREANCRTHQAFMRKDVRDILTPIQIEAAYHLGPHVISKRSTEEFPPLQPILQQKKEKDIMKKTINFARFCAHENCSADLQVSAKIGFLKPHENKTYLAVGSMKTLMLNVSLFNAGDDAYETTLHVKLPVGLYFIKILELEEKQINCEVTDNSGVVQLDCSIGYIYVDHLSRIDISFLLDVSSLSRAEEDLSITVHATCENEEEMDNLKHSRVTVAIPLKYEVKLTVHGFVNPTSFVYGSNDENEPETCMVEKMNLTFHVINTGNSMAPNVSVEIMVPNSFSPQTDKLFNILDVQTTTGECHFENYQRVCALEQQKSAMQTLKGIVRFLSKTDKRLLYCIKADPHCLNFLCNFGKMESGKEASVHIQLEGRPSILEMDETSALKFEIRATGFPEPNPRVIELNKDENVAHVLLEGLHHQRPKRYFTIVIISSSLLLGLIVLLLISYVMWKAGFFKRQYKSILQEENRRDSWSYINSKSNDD
- Sequence (P05556 21-798): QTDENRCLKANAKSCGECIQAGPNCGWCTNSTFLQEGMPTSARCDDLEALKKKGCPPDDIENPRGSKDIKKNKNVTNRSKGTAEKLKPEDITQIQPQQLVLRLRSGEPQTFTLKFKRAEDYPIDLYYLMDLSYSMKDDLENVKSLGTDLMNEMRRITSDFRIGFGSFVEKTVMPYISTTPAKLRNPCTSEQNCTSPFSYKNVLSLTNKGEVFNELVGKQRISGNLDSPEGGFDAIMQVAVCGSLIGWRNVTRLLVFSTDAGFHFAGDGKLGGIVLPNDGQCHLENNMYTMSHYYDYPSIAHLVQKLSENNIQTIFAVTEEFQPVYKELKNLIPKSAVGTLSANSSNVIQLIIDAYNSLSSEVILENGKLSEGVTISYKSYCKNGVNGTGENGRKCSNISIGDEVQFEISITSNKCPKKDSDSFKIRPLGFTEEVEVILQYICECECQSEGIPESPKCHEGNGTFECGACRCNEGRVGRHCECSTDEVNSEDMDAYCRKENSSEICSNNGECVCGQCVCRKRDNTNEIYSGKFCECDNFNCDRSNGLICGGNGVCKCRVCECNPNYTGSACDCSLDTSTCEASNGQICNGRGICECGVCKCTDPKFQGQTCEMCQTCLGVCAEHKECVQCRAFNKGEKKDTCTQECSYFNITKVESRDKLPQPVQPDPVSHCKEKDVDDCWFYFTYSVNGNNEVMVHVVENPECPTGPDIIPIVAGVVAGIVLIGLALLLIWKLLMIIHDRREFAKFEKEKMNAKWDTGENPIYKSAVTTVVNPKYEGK
- method_notes: In vitro inhibition of binding between CHO cells expressing hα4 and β1 integrins and Eu3+-hVCAM-1 D1D7-IgG
- particulars: in the presence of 3% human serum albumin (HSA final concentration 3%)
outcome_measure: IC50 (nM)
The figure you give is taken to be in nM; do not add the unit.

-- ask Tell me the measured IC50 of O=C(Nc1cc(F)c(CC(=O)N2C[C@@H](N3CCC4(CC4)C3)C[C@H]2CO[C@H]2CC[C@H](C(=O)O)CC2)cc1Cl)c1csc2ccccc12 , please.
-- reply 4.9

-- ask Tell me the measured IC50 of Cn1cc(C(=O)Nc2cc(Cl)c(CC(=O)N3C[C@@H](N4CCN(C(C)(C)CF)CC4)C[C@H]3CO[C@H]3CC[C@H](C(=O)O)CC3)cc2Cl)c2ccccc21 , please.
-- reply 20

-- ask Tell me the measured IC50 of CC(C)(C)N1CCN([C@H]2C[C@@H](CO[C@H]3CC[C@H](C(=O)O)CC3)N(C(=O)Cc3cc(Cl)c(NC(=O)c4coc5ccccc45)cc3Cl)C2)CC1 , please.
-- reply 8.9

-- ask Tell me the measured IC50 of Cn1cc(C(=O)Nc2cc(Cl)c(CC(=O)N3C[C@@H](N4CCN(CC5CC5)CC4)C[C@H]3CO[C@H]3CC[C@H](C(=O)O)CC3)cc2Cl)c2ccccc21 , please.
-- reply 13
